Values compiled from the Human Domainome abundance scans (Beltran et al. 2025).

B1: Membrane-associated guanylate kinase, WW and PDZ domain-containing protein 2, residues 601 to 682; numbered along this chain, Q86UL8 (parent)
chain: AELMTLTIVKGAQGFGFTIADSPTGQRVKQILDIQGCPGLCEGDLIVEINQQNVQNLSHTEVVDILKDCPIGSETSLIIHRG

Variants of: B1
Test method notes: abundance fitness (aPCA) (normalised: wild type 0, dead -1); higher = more abundant; growth selection in yeast, the domain comes from the species named
Condition description: Homo sapiens
Y means recorded abundance fitness is -0.1 or above; N means it is below -0.1.

>>> print(df.to_string())
   mutation_id  label_value
0         L57T            N
1         S73K            Y
2         V62F            N
3         T60P            N
4         P70L            Y
5         L66A            N
6         G43H            Y
7         V47G            N
8         C37F            Y
9         L66G            N
